Target: UniProtKB P08238
Sequence (P08238 whole entry): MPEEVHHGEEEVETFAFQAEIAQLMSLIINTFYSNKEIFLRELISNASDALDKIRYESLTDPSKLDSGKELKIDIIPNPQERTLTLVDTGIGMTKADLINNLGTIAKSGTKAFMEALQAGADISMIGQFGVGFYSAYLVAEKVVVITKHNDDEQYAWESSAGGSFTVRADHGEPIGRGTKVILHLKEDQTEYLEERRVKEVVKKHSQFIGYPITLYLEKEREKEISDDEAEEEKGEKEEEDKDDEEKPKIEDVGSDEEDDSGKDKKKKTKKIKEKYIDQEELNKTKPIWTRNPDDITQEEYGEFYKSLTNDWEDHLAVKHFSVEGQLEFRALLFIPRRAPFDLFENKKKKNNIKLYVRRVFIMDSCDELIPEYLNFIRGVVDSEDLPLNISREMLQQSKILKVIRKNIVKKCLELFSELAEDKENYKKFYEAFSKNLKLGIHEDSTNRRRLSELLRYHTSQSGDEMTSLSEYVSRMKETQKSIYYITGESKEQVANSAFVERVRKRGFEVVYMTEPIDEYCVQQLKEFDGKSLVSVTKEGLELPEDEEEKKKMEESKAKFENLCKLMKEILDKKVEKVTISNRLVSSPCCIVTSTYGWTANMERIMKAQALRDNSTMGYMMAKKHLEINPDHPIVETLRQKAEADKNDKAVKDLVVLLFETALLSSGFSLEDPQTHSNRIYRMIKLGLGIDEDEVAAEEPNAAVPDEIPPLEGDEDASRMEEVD
Experiment: Binding affinity to human Hsp90 closed state by fluorescence polarization anisotropy
Peptide text beside a SMILES is read from it.
measurementKind: Kd (µM)
Give the quantity in µM, number only.

What Kd appears in the records for this molecule with UniProtKB P08238? CC(C)C[C@@H]1NC(=O)[C@H](Cc2ccccc2)NC(=O)[C@H](CC(C)C)NC(=O)[C@H](C(C)C)NC(=O)[C@H](CC(C)C)NC1=O (cyclo(FLLVL))
100
